targetDesc: T1, human IL-17A (human, UniProt Q16552 20-155, limits assumed)
T1 construct: Bought from R&D Systems; also called IL-17 antigen (human IL17A)
T1 sequence (looked up): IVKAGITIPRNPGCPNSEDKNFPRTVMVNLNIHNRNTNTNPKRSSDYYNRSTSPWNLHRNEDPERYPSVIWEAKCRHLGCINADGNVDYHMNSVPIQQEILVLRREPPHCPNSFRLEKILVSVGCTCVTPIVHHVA
assaySummary: BLI (Octet Red96), antibody captured on AHC biosensor, human IL-17A in solution, 1:1 model, 25 C
endpointName: kon (M⁻¹ s⁻¹)

- PP10760 (antibody, human IgG4 S228P, kappa, V domains shown, Humanized, human IgG4/kappa; also called VH6665/VL6665) VH: EVQLVESGGGLVQPGGSLRLSCAASGFTFSTYGMSWVRQAPGKGLELVSIINHNGGSTFYPDSVKGRFTISRDNSKNTLYLQMNSLRAEDTAVYYCARDPRHDGYFFDYWGQGTLVTVSS VL: DIQMTQSPSSLSASVGDRVTITCQASEDIYDRLAWYQQKPGKAPKLLISGATSLETGVPSRFSGSGSGTDYTFTISSLQPEDIATYYCQQYWSVPWTFGGGTKVEIKR: 490000

Source: patent US20210309735A1
